Where do these numbers come from? They come from patent US7592143B2.

Measured Caspase activity (Ratio), listed per entry.
System: T-47D
Experiment: Caspase cascade activation and induction of apoptosis in solid tumor cells
Assay type: cell-based, Human
Conditions: 48 h incubation, ratio of net RFU of test compound to control
Protocol: Human breast cancer cell lines T-47D and DLD-1 were grown according to media component mixtures designated by American Type Culture Collection +10% FCS (Invitrogen Corporation), in a 5% CO2-95% humidity incubator at 37° C. […] After the 3 h incubation, the samples were read for fluorescence as above (T=3 h). The Relative Fluorescence Unit values (RFU) were used to calculate the sample readings as follows: RFU(T=3h)−Control RFU(T=0)=Net RFU(T=3h) […]
// no unit string in output, number only

INSERT INTO measurements (compound, tested_target, readout_number) VALUES
  ('C=CCC12OCC3CC(CC4C(=O)c5ccccc5OC341)C2=O (stereo not drawn) [Example 19]', 'T-47D', 1.0),
  ('CC(C)=CCC12OC(C)(C)C3CC(C=C4C(=O)c5ccccc5OC431)C2=O (stereo not drawn) [Example 22]', 'T-47D', 9.9);

The record that follows has no Caspase activity (Ratio) shown yet.
[ask] Param item = C=CCC12OCC3CC(C=C4C(=O)c5ccccc5OC431)C2=O (stereo not drawn) [Example 17] ; retrieve measured Caspase activity (Ratio).
[reply] 9.8
